System: NCI/ADR-RES ovarian
Assay: NCI tumour cell line growth inhibition, 48 h
VALUE_KIND: TGI (µM)
Give just the numeric value; µM need not be written.

S=c1nc(N/N=C/c2cccs2)c2cn[nH]c2[nH]1 ... 81.7

// below: TGI requested for another compound
Task: // returns reported TGI for input O=C1C(=O)c2ccccc2C(O)=C1CCCc1ccc(C2CCCCC2)cc1
Result: 76.5

----------
Test system: TK-10 renal
Experiment: NCI tumour cell line growth inhibition, 48 h
VALUE_KIND: GI50

Clc1ccc2nc(CI)c(CI)nc2c1 ... 3 µM
COc1ccc(/C=C2\SC(=Nc3ccccc3)NC2=O)cc1 ... 41.4 µM
CO[C@H]1C[C@](C)(O)Cc2cc3c(c(O)c21)C(=O)c1c(O)cc2c(c1C3=O)O[C@@H]1O[C@@]2(C)[C@H](O)[C@@H](N(C)C)[C@@H]1O ... 3.89 µM
Cc1cc(OCCOCCC(F)(F)P(=O)(O)O)ccc1CCc1cnc2c(N)nc3cc(CCC(=O)O)ccc3c2c1 ... > 100 µM
CC([C@H]1CC=C2C3CCC4=C[C@@H](N(C)C)CC[C@]4(C)C3CC[C@@]21C)N(C)C (some centres undefined) ... 5.42 µM
CCC1(OC(=O)CN)C(=O)OCc2c1cc1n(c2=O)Cc2cc3ccccc3nc2-1 (centres undefined) ... 0.721 µM
CC(C)C(=O)c1c(C(F)(F)F)n([O-])c2cc(F)c(F)cc2[n+]1=O ... 0.976 µM
O=C1C=Cc2c1ccc1ccccc21 ... 15.9 µM

Task: // returns reported GI50 for input C=C1C(=O)O[C@H]2[C@H]1CC/C(COC(=O)OC/C1=C/CC[C@@]3(C)O[C@H]3[C@H]3OC(=O)[C@@H](CN(C)C)[C@@H]3CC1)=C\CC[C@@]1(C)O[C@@H]21
Result: 1.18 µM

----------
Tested on: NCI-H23 lung
Experiment: NCI tumour cell line growth inhibition, 48 h
VALUE_KIND: TGI (µM)
Give just the numeric value; µM need not be written.

Solved entries:
COC1=CC(c2ccc[nH]2)=N/C1=C\c1[nH]c(C)c(CC(=O)OCc2ccccc2)c1C ... 2.98
C=CC(=O)N1C/C(=C\c2ccc([N+](=O)[O-])cc2)C(=O)/C(=C/c2ccc([N+](=O)[O-])cc2)C1 ... 0.791

Task: // returns reported TGI for input COc1cc2c(cc1Oc1c(Oc3c(O)c(OC)cc4c3C(CC(C)C)N(C)CC4)c(OC)cc3c1C(CC(C)C)N(C)CC3)C(CC(C)C)N(C)CC2 (configuration not stated)
Result: 4.91

----------
System: RXF 393 renal
Assay: NCI tumour cell line growth inhibition, 48 h
Measured TGI by item

Solved entries:
O[C@@H]1CCC[C@@H]2NC[C@@H](c3ccc4c(c3)OCO4)[C@H]12 ... > 100 µM
CCCCCC[C@@H](C)NC(=O)c1ccc(Nc2nc3ccccc3c3occc23)cc1 ... 9.84 µM
CNC(=O)SCC(NC(=O)CCC(N)C(=O)O)C(=O)NCC(=O)O (stereo unspecified) ... > 100 µM

Task: // returns reported TGI for input CCOC(=O)[C@@]1(C)CC(O)C(=O)N1C (stereo partly specified)
Result: > 100 µM

Task: Same lookup for COc1cc2c(cc1Oc1c(Oc3c(O)c(OC)cc4c3C(CC(C)C)N(C)CC4)c(OC)cc3c1C(CC(C)C)N(C)CC3)C(CC(C)C)N(C)CC2 (stereo unspecified) , please.
Result: 3.28 µM

Task: Same lookup for O=C(C/C(=N/O)C(F)(F)F)c1cccs1 , please.
Result: > 100 µM

----------
Test system: HCT-116 colon
Assay: NCI tumour cell line growth inhibition, 48 h; in the data active means GI50 below about 0.43 µM; inactive means the rest
Your reply should match one of these outcome classes. 1.0 for active, 0.0 for inactive

As a guide, the following entries are already answered.
COc1ccc(NC(=O)c2sc3nc(C)c(C(=O)/C=C/c4cccc(OC)c4)cc3c2N)cc1 ... 0.0
COc1ccc(/C(C#N)=C/c2cc(OC)c(OC)c(OC)c2)cc1 ... 0.0
CCCCCC[C@@H](C)NC(=O)c1ccc(Nc2nc3ccccc3c3occc23)cc1 ... 0.0

Task: Hi, sorry to bother you, what did the test record for Cn1nc(C(F)(F)F)c(-c2cc(C(F)(F)F)cc(C(F)(F)F)c2)c1-c1ccc(OCc2ccc(Cl)cc2)cc1O ?
Result: 0.0

----------
Test system: HOP-62 NSCLC
Assay: NCI tumour cell line growth inhibition, 48 h
Measured TGI by item
Give just the numeric value; µM need not be written.

Solved entries:
C=C1C(=O)O[C@H]2[C@H]1CC/C(COC(=O)OC/C1=C/CC[C@@]3(C)O[C@H]3[C@H]3OC(=O)[C@@H](CN(C)C)[C@@H]3CC1)=C\CC[C@@]1(C)O[C@@H]21 ... 26.5
COc1cc(C(=O)O[C@H](C(=O)NCCN(C)CCNC(=O)[C@@H](OC(=O)c2cc(OC)cc3c(C)cccc23)[C@]2(C)CO2)[C@]2(C)CO2)c2cccc(C)c2c1 ... 7.85

Task: Request - read-out TGI | tested on HOP-62 NSCLC | compound Cc1cc(Nc2ccc(NS(C)(=O)=O)cc2)c2c(ccc3nccc32)[nH]1
Result: 44.5

----------
System: SK-MEL-5 melanoma
Assay: NCI tumour cell line growth inhibition, 48 h
Short version: TGI at least 30 µM is met, less is not met.

As a guide, the following entries are already answered.
CC([C@H]1CC=C2C3CCC4=C[C@@H](N(C)C)CC[C@]4(C)C3CC[C@@]21C)N(C)C (some centres not stated) ... not met
Cc1ccc(S(=O)(=O)N/N=C2\CC3CC4CCC2C4C3)cc1 (configuration not stated) ... met
Nc1nc(SCc2ccccc2Cl)cc(C(=O)O)n1 ... met
O=C(c1cccnc1)N1N=C(c2ccccc2)CC1(O)c1cc(F)c(Cl)cc1Cl (configuration not stated) ... not met
COC1=C(Cl)C(=O)c2c(O)ccc(O)c2C1=O ... not met
Cc1ccc2nc3cc(C)c(=O)cc-3sc2c1 ... met

Task: Could you please find out whether COc1cc2c(cc1OC)C1Cc3ccc(OC)c(OC)c3C[N+]1([O-])CC2 (configuration not stated) has TGI that meets 30 µM or exceeds it?
Result: met

Task: Same lookup for O=C(C#Cc1ccccc1)C1=Cc2ccccc2OC1 , please.
Result: not met

Task: Same lookup for Cc1nc2ccc(F)cc2c(Cl)c1CCCl , please.
Result: met

Task: Same lookup for Cc1c(C)c(C)c(-n2c(=O)n(C)c(=O)n2-c2cc(C(C)(C)C)cc(C(C)(C)C)c2O)c(C)c1C , please.
Result: not met

Task: Same lookup for CCCCCCCCP(=O)(O)OP(=O)(O)OCC1OC(n2ccc(N)nc2=O)C(O)C1O (configuration not stated) , please.
Result: met

Task: Same lookup for C[C@]12CC[C@H]3[C@@H](CC4SC(N)=NC45C/C(=N/NC(N)=O)CC[C@]35C)[C@@H]1CCC2=O (some centres not stated) , please.
Result: not met

Task: Same lookup for O=C(C/C(=N/O)C(F)(F)F)c1cccs1 , please.
Result: met

Task: Same lookup for CC1SC2(CCCCC2)N(NC(=O)CSc2nc3ccc(Cl)cc3c(=O)n2-c2ccccc2)C1=O (configuration not stated) , please.
Result: not met

Task: Same lookup for C=C(C)[C@H]1C2=CC(C)=C(O2)[C@@H](O)[C@H](C(=C)C)CCC2=C[C@H]1OC2=O , please.
Result: met

Task: Same lookup for CCCCSC1=N/C(=C\c2ccc(N(C)C)cc2)C(=O)N1 , please.
Result: met

Task: Same lookup for C#C[C@@]1(O)CCCC2=CC3(CC[C@]21C)SCCS3 , please.
Result: met

Task: Same lookup for COc1cc2cc(C(=O)N3CC(CCl)c4ccc(N(C)C)cc43)[nH]c2c(OC)c1OC (configuration not stated) , please.
Result: not met

Task: Same lookup for Cc1cc(OCCOCCC(F)(F)P(=O)(O)O)ccc1CCc1cnc2c(N)nc3cc(CCC(=O)O)ccc3c2c1 , please.
Result: met

Task: Same lookup for C=CCN1/C(=C2\SC(=S)N(c3ccc(C)cc3)C2=O)Sc2c1ncn(C)c2=O , please.
Result: met

Task: Same lookup for C[n+]1c2ccccc2nc2ccccc21 , please.
Result: not met

Task: Same lookup for CCCCCCCCCCCCCCCCCCNC(=S)/N=C/c1c(O)c2ccccc2[nH]c1=O , please.
Result: met

Task: Same lookup for O=C(Nc1ccccc1-c1nn(CN2CCNCC2)c(=S)n(CN2CCNCC2)c1=O)C(F)(F)F , please.
Result: met

Task: Same lookup for COc1c(Br)cc2ccccc2c1-c1c(OC)c(Br)cc2ccccc12 , please.
Result: met

Task: Same lookup for COc1cc2c(cc1Oc1c(Oc3c(O)c(OC)cc4c3C(CC(C)C)N(C)CC4)c(OC)cc3c1C(CC(C)C)N(C)CC3)C(CC(C)C)N(C)CC2 (configuration not stated) , please.
Result: not met
